# Measurement description: Measurement of Log P values by HPLC on reversed phase columns (EEC directive 79/831 Annex V.A8), methods [a], [b], [c]
# Type: physicochemical
# Condition notes: HPLC on reversed phase column, method [a]
This listing pairs compounds with measured LogP.

Consider the reported LogP for these compounds:
Cc1c(Cl)nnc(Oc2cccc(C3CC3)c2F)c1C(=O)NCCc1ccc(Cl)cc1Cl [I-215]: 4.58^[a]
Cc1cc(C(=O)NCC(F)(F)c2ccc(C3CCCCC3)cc2Cl)c(Oc2cccc(C(F)(F)F)c2)nn1 [I-018]: 5.44^[a]
Cc1cc(C(=O)NC2CCOc3c(C)cccc32)c(Oc2cccc(C(F)(F)F)c2)nn1 (racemic) [I-107]: 3.65^[a]

Q: Name the recorded LogP for O=C(NCC(F)(F)c1ccc(Cl)cn1)c1cc(Cl)nnc1Oc1cccc(C(F)(F)F)c1 [I-108] .
Ans: 3.65^[a]

Q: LogP lookup needed for Cc1cc(C(=O)NCC(F)(F)c2ccc(C3CCC3)cc2Cl)c(Oc2cccc(C(F)(F)F)c2)nn1 [I-028] , thanks.
Ans: 4.83^[a]

Q: // query LogP value for entry O=C(NCC(F)(F)c1ccc(SCC(F)(F)F)cc1Cl)c1cc(Cl)nnc1Oc1cccc(C(F)(F)F)c1 [I-087]
Ans: 4.45^[a]

Q: Give its LogP value. Item: COc1ccc(C(F)(F)CNC(=O)c2cc(Cl)nnc2Oc2cccc(C(F)(F)F)c2)c(Cl)c1 [I-007]
Ans: 4.00^[a]

Q: I have this compound here, CC(=O)N(C)Cc1c(Cl)nnc(Oc2cccc(C(F)(F)F)c2)c1C(=O)NCCc1ccc(C)cc1C [I-077] , and I need its recorded LogP.
Ans: 3.65^[a]

Q: Entry O=C(NCC(F)(F)c1ccc(F)cc1F)c1cc(Cl)nnc1Oc1cccc(C(F)(F)F)c1 [I-067] : reported LogP = ?
Ans: 3.75^[a]

This collection of values is drawn from patent US20230165252A1.
